Reference source for all entries: paper PMC4568301

# assayedSystem: AnxA2–HA (His6–AnxA2 fused to an HA tag, residues 1–339) (human, UniProt P07355 1-339)
# Sequence (P07355 whole entry, the tested form may be a part): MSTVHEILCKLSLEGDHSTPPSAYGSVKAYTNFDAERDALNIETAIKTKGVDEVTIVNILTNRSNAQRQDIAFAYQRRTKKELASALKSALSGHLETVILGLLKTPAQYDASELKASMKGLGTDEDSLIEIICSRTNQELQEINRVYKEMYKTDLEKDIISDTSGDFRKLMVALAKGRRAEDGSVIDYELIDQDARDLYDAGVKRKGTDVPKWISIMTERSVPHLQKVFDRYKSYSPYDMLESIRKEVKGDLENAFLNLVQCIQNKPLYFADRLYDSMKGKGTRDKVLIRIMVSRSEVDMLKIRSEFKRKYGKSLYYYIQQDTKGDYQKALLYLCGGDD
# experimentalDetails: […]
quantityKind: binding result

So, TirC-EPEC (residues 369–550), His6-tagged (domain or fragment) SSALIVAGGIGAGVTTALHRRNQPAEQTTTTTTHTVVQQQTGGNTPAQGGTDATRAEDASLNRRDSQGSVASTHWSDSSSEVVNPYAEVGGARNSLSAHQPEEHIYDEVAADPGYSVIQNFSGSGPVTGRLIGTPGQGIQSTYALLANSGGLRLGMGGLTSGGESAVSSVNAAPTPGPVRFV ? Its binding result was binds

So, TirN-EPEC (residues 1–240), His6-tagged (domain or fragment) MPIGNLGNNVNGNHLIPPAPPLPSQTDGAARGGTGHLISSTGALGSRSLFSPLRNSMADSVDSRDIPGLPTNPSRLAAATSETCLLGGFEVLHDKGPLDILNTQIGPSAFRVEVQADGTHAAIGEKNGLEVSVTLSPQEWSSLQSIDTEGKNRFVFTGGRGGSGHPMVTVASDIAEARTKILAKLDPDNHGGRQPKDVDTRSVGVGSASGIDDGVVSETHTSTTNSSVRSDPKFWVSVGA ? Its binding result was binds

So, TirN-EHEC (residues 1–237), His6-tagged (domain or fragment) MPIGNLGHNPNVNNSIPPAPPLPSQTDGAGGRGQLINSTGPLGSRALFTPVRNSMADSGDNRASDVPGLPVNPMRLAASEITLNDGFEVLHDHGPLDTLNRQIGSSVFRVETQEDGKHIAVGQRNGVETSVVLSDQEYARLQSIDPEGKDKFVFTGGRGGAGHAMVTVASDITEARQRILELLEPKGTGESKGAGESKGVGELRESNSGAENTTETQTSTSTSSLRSDPKLWLALGT ? Its binding result was binds
